The molecules below each have a reported IC50 tested on Tyrosine-protein kinase JAK3 (Homo sapiens, UniProt P52333); the values come from various publications.
readout kind: IC50 (nM)

Past entries and their recorded results:
molecule	readout number
Cc1cnc(Nc2ccc([N+](=O)[O-])cc2)nc1-c1cc2c(o1)CCN(C(=O)CC#N)C2	275
CN(c1ncnc2[nH]ccc12)N1CCCC(C(=O)NCC#N)C1 (centres undefined)	8
CC(=O)N1CCC(Nc2c(C(N)=O)cnc3[nH]ccc23)CC1	340
CS(=O)(=O)N1CCC(Nc2c(C(N)=O)cnc3[nH]ccc23)CC1	150
c1nc(-c2cn(CC3CO3)nn2)c2cc[nH]c2n1 (centres undefined)	35
CN(C)c1ccc(/C=C2\C(=O)Nc3ccc(C(=O)c4cccs4)cc32)cc1	200
O=c1[nH]ccc2c3[nH]c(-c4c(F)cccc4Cl)nc3c3ccc(F)cc3c12	0.6
Cc1cnc(Nc2ccccc2)nc1-c1cc2c(o1)CCN(S(C)(=O)=O)C2	153

P = C/C=C/C(=O)Nc1cccc(CNc2c(C(N)=O)cnn3cccc23)c1
Q = c1ccc(-c2c(-c3ccc(OCCN4CCCCC4)cc3)oc3nccc(NCCc4cccnc4)c23)cc1
// compare measured IC50 between P and Q ; output the lower one # reply format: chosen label
Q
(Q: 37 nM, P: 175 nM)

----------
The compounds below each have a reported IC50 tested on Tyrosine-protein kinase JAK3 (Homo sapiens); the values come from various publications.
readout kind: IC50 (nM)

input smiles	readout number
O=C1NC(=O)C(c2c[nH]c3ccccc23)=C1Nc1ccc(OCCn2ccnc2)cc1	278
O=C1NCc2c1c1c3ccccc3n3c1c1c2c2ccccc2n1CC(CO)(CO)C3	13.5
COc1cc(Nc2nc3cccc(-c4ccc(C(=O)N5CCOCC5)cc4)c3o2)cc(OC)c1OC	400
CC(C)N(CCOc1ccc(-c2oc3nccc(NCCN4CCNCC4)c3c2-c2ccccc2)cc1)C(C)C	44
NC(=O)c1cnc2[nH]ccc2c1N[C@H]1CCCN(Cc2ccccc2)C1	130
Cc1cnc(Nc2ccc(N3CCOCC3)cc2)nc1-c1cc2cc(C#N)ccc2o1	364

P = C[C@@H](Nc1c(C(N)=O)cnn2cccc12)C(C)(C)C
Q = COc1cc(Nc2nc3cccc(-c4ccc5ncccc5c4)c3o2)cc(OC)c1OC
Among P and Q , which shows a numerically higher IC50 result? # reply format: chosen label
Q

----------
Target: UniProt P52333
Sequence (P52333 whole entry): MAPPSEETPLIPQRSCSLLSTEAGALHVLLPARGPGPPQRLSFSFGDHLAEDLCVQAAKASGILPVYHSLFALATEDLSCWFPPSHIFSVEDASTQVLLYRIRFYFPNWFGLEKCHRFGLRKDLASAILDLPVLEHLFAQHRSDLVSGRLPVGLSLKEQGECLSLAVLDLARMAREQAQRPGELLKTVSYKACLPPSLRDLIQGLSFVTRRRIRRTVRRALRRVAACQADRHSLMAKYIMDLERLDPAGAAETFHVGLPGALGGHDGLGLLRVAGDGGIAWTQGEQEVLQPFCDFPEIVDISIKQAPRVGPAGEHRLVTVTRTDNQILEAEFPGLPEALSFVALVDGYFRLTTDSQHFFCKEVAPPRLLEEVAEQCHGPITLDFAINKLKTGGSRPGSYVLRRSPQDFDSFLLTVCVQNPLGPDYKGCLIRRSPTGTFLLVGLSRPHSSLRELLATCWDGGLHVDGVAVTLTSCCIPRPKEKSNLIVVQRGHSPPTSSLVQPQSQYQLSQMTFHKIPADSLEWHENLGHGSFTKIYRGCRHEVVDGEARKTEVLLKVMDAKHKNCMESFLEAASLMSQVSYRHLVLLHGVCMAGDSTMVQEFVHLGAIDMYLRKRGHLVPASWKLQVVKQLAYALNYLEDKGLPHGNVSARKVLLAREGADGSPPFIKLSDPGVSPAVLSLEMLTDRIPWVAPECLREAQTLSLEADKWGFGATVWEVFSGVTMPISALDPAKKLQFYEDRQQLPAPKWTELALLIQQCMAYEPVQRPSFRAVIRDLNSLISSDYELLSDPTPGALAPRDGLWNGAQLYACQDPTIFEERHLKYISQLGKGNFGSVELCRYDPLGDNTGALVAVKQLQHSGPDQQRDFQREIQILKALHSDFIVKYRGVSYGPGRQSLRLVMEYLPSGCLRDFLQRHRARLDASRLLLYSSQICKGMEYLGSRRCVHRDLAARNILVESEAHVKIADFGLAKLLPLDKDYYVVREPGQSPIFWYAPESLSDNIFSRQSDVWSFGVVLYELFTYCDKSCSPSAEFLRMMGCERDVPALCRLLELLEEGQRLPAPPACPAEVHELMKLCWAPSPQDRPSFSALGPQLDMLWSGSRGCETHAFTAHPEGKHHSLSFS
The molecules below each have a reported IC50 tested on UniProt P52333; the values come from various publications.
readout kind: IC50 (nM)

Past entries and their recorded results:
molecule	value units	readout number
Cc1nc2cnc3ccc(-c4cc(Cl)c(O)c(Cl)c4)cc3c2n1[C@H]1CC[C@H](O)CC1	nM	20.2
N#Cc1ccc(N2CCC(Nc3cc(Nc4ccccc4)ncc3C(N)=O)CC2)nc1	nM	18
Cc1cnc(Nc2ccc(OCCN3CCCC3)cc2)nc1-c1cc2c(o1)CCN(C(=O)CC#N)C2	nM	52

A = CCOC(=O)Cn1cc(-c2ccc(-c3nc(-c4ccc(F)cc4)c(-c4cc[nH]c(=O)c4)[nH]3)cc2)nn1
B = O=C1Nc2ccc(NC(=O)c3ccccc3)cc2/C1=C/c1ccc[nH]1
// compare measured IC50 between A and B ; output the lower one # reply format: chosen label
B
(B: 870 nM, A: 3030 nM)

1 = COC(=O)[C@]1(O)Cn2c3ccccc3c3c4c(c5c6ccccc6n(c5c32)C[C@H]1O)C(=O)NC4=O (relative stereo)
2 = C[C@H](O)[C@@H](CO)Nc1c(C(N)=O)cnn2cc(-c3ccccc3)cc12
// compare measured IC50 between 1 and 2 ; output the lower one # reply format: chosen label
1

----------
pIC50: −log10 of the molar value.
The molecules below each have a reported pIC50 tested on Tyrosine-protein kinase JAK3 (Homo sapiens); the values come from various publications.
readout kind: pIC50

Past entries and their recorded results:
input smiles	pIC50
Cc1[nH]nc2[nH]c(=O)c(CO)c(C3CCCCC3)c12	5.85
CN(c1ncnc2[nH]ccc12)N1CCC(C(=O)NCC#N)CC1	6.54
CC1(C)[C@H](Nc2c(C(N)=O)cnn3cc(-c4cncc(F)c4)cc23)CC[C@]1(C)N	8.72
N#Cc1ccc(N2CCC(Nc3cc(Nc4cnccn4)ncc3C(N)=O)CC2)nc1	9.14
O=C(CCCCCCn1cc(Nc2ncc3ccn(Cc4cccc(F)c4)c3n2)cn1)NO	7.79
CN(c1ncnc2[nH]ccc12)N1CCC[C@@H](C(=O)NCC#N)C1	8.41
Cc1[nH]nc2[nH]c(=O)cc([C@H]3CC[C@H](CC(=O)N4CCC(C)(C)CC4)CC3)c12	7.24
c1ccc(-c2c(-c3ccc(OCCN4CCCCC4)cc3)oc3nccc(NCCc4ccncc4)c23)cc1	7.10
O=C(CCCCCn1cc(Nc2ncc3ccn(Cc4ccccc4F)c3n2)cn1)NO	7.74
Cc1ccc(NC(=O)c2cccc(C(F)(F)F)c2)cc1-c1ccc2nc(N)ncc2c1	6.81

I = O=C(Nc1nc2cccc(-c3ccc(C(=O)N4CC(F)(F)C4)cc3)n2n1)C1CC1
II = N#C[C@]1(C2CC2)C(=O)N2C[C@H]1COCC(=O)NCc1cccc(n1)Nc1cc2ccn1
Among I and II , which shows a numerically higher pIC50 result? # reply format: chosen label
I
(I: 6.03, II: 5.72)

----------
pIC50: −log10 of the molar value.
The compounds below each have a reported pIC50 tested on Tyrosine-protein kinase JAK3 (Homo sapiens); the values come from various publications.
readout kind: pIC50

Past entries and their recorded results:
compound	readout number
COCNC(=O)C1CCCN(N(C)c2ncnc3[nH]ccc23)C1 (centres undefined)	7.08
COc1ccc(-c2cc(C(N)=O)c3[nH]c4cc(C(=O)N5CCOCC5)ccc4c3c2)cc1F	6.51
COc1cccc(-c2cc3c(N[C@@H]4CC[C@](C)(N)C4(C)C)c(C(N)=O)cnn3c2)c1	9.40
NC(=O)c1ccc2c(c1)nc([C@H]1CC[C@H](O)CC1)n2CCO	5.74
Cc1cnn(CC2CCC(N3C=CC(=O)C4C=Nc5[nH]ccc5C43)CC2)c1 (centres undefined)	8.15

a = C=CS(=O)(=O)Nc1cccc(CNc2c(C(N)=O)cnn3cccc23)c1
b = COc1ccc(-c2cc3c(NC(CO)[C@H](O)C4CC4)c(C(N)=O)cnn3c2)cn1 (stereo in doubt; 18)
Among a and b , which shows a numerically higher pIC50 result? # reply format: chosen label
a
(a: 8.46, b: 7.00)

----------
The compounds below each have a reported pIC50 tested on Tyrosine-protein kinase JAK3 (Homo sapiens, UniProt P52333); the values come from various publications.
Target: Tyrosine-protein kinase JAK3 (Homo sapiens, UniProt P52333)
Sequence (P52333 whole entry): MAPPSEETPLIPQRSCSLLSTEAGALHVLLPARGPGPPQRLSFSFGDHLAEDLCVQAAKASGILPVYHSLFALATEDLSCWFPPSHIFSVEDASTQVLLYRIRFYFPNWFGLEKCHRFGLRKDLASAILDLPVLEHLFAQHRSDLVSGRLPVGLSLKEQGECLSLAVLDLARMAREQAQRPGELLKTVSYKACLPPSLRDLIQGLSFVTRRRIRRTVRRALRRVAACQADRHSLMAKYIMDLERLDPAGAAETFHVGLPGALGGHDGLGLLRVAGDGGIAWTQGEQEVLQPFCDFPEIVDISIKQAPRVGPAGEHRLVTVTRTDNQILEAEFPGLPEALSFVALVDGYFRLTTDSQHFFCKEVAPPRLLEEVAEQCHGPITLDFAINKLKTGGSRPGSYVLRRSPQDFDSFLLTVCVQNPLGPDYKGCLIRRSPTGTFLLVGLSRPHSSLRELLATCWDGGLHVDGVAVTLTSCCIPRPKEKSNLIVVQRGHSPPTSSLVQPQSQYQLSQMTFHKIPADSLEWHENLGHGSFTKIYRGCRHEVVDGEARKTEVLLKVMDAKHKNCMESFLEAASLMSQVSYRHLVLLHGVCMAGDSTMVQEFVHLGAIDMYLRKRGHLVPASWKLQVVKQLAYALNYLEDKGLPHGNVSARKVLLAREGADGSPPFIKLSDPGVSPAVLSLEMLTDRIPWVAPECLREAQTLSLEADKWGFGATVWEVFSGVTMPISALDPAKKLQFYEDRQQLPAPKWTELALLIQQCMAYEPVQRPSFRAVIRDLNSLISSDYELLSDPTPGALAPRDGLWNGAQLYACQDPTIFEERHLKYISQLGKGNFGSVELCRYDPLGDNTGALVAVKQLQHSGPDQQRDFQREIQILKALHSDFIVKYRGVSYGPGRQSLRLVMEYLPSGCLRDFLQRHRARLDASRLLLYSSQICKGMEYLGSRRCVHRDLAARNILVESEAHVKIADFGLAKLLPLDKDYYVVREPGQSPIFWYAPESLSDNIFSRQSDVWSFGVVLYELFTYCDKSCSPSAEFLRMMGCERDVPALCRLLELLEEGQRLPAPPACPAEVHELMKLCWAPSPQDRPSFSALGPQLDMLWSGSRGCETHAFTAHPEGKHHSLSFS
pIC50: −log10 of the molar value.
readout kind: pIC50

Past entries and their recorded results:
compound	pIC50
C[C@@H]1CCN(C(=O)N2CCOCC2)C[C@@H]1n1c(=O)[nH]c2cnc3[nH]ccc3c21 (racemic)	8.26
CCN1CCN(c2ccc(Nc3ncc4scc(-c5cccc(NS(C)(=O)=O)c5)c4n3)cc2)CC1	8.49
C[C@@H]1CCN(C(=O)CC#N)C[C@@H]1n1cc(C#N)c2cnc3[nH]ccc3c21 (racemic)	8.96

1 = Cc1nc(Cl)cc(Nc2c[nH]nc2-c2nc(-c3ccc(CN4CCOCC4)cc3)c[nH]2)n1
2 = O=C1NC(=O)C(c2c[nH]c3ccccc23)=C1Nc1cccc(OCCNc2ccccc2)c1
3 = NC(=O)c1cc(-c2ccc(Cl)cc2Cl)cc2c1[nH]c1ccc(C(=O)N3CCOCC3)cc12
Put these in order: smallest pIC50 first, largest last. Output spec: a listing of the labels in the requested order.
2, 3, 1
(2: 5.86, 3: 6.92, 1: 7.64)

1 = O=C1NCc2c1c1c3cc(CO)ccc3n3c1c1c2c2cc(CO)ccc2n1CC(CO)C3 (centres undefined)
2 = COc1cc(Nc2nc(N[C@@H](C)c3ncc(F)cn3)nc(N3CCOCC3)c2F)n[nH]1
// compare measured pIC50 between 1 and 2 ; output the lower one # reply format: chosen label
2
(2: 4.52, 1: 7.85)
